Every entry's value here was drawn from PubChem BioAssay.

Provide the recorded z-score for the entries that follow.
experiment: S. cerevisiae RM11-1a growth modifiers, primary screen, strain RM11-1a, OD600, basal, 24 h (AID 1177); details: OD600, 24 h, higher = more signal, called active from +8 up or from −8 down;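 note: cultures grown under basal conditions with no added stressor; test concentration not given here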
The source made the active and inactive calls.

[in] Entry COCCOC(=O)N1C(=O)[C@@]2(c3cc(C#CC4(O)CCCCCC4)ccc31)[C@H](c1ccc(OCCO)cc1)N1[C@H](c3ccccc3)[C@H](c3ccccc3)OC(=O)[C@H]1[C@@H]2C(=O)N1CCCCCCC1 needs its z-score filled in; supply it.
[out] 2.11 (inactive)

[in] Entry COC(=O)c1ccc([C@H](NC(=O)c2ccccc2)[C@]2(C)C[C@H]2C2CCCCC2)cc1 needs its z-score filled in; supply it.
[out] 0.832 (inactive)

[in] Entry C=CC[C@]1(C(=O)NCc2ccccc2)COC(c2ccc(OCCCO)cc2)=N1 needs its z-score filled in; supply it.
[out] 0.02 (inactive)

[in] Entry CC1(C)OC[C@@]23C=C(Br)[C@@H](C[C@H]12)[C@@]1(CO1)C3=O needs its z-score filled in; supply it.
[out] 0.617 (inactive)

[in] Entry COC(=O)C1=CC(CCCO)=CC(c2ccc(CN3CCCC3)cc2)N(Cc2sc3ccccc3c2Cl)C=C1C(=O)OC (stereo not given) needs its z-score filled in; supply it.
[out] -1.62 (inactive)
